Organism: Rattus norvegicus
Assay procedure: Open TG-GATES - Regimen: Single
Format: toxicity, organism-based, Sprague-Dawley
Design: regimen Single, gender Male, age 6 weeks
Assay conditions: in vivo, po, 0 mg/kg, 24 h, tissue Blood, route gavage, dose level Control
Quantity name: Fbg
Write the numeric value and follow it with the unit.

# count of solved cases: 5
>>> result("Cn1c(=O)c2[nH]cnc2n(C)c1=O.O")
"291.2 mg/dL"
>>> result("NC(=O)N1c2ccccc2C=Cc2ccccc21 [CARBAMAZEPINE]")
"215.6 mg/dL"
>>> result("O=C(O)c1cn(C2CC2)c2cc(N3CCNCC3)c(F)cc2c1=O")
"209.2 mg/dL"
>>> result("CCc1cc(C(N)=S)ccn1 [ETHIONAMIDE]")
"214.4 mg/dL"
>>> result("CC(=O)Oc1ccccc1C(=O)O")
"222.8 mg/dL"

Now for the molecule whose Fbg we want.
Specify reported Fbg for the molecule shown: CSc1ccc2c(c1)N(CCC1CCCCN1C)c1ccccc1S2 (stereo unspecified)
225 mg/dL
